Tested on: antibodies in sera from SARS patients (sera 1a, 1b, 2, 6, 37, 62, London, SARS-yellow, SARS-green)
Format: binding, human
Design: unit not given here
Rule for this label: Fulfilled means Binding of serum 2 to looped/cyclic peptides of protein N of SARS-CoV Urbani is less than 0.4; Not fulfilled means Binding of serum 2 to looped/cyclic peptides of protein N of SARS-CoV Urbani is at least 0.4.

## Task I'd appreciate it if you could check whether "TKKSAAEASKKPRQK" has Binding of serum 2 to looped/cyclic peptides of protein N of SARS-CoV Urbani smaller than 0.4.
## Result Fulfilled

## Task I'd appreciate it if you could check whether "RSSSRSRGNSRNSTP" has Binding of serum 2 to looped/cyclic peptides of protein N of SARS-CoV Urbani smaller than 0.4.
## Result Fulfilled

## Task I'd appreciate it if you could check whether "QAFGRRGPEQTQGNF" has Binding of serum 2 to looped/cyclic peptides of protein N of SARS-CoV Urbani smaller than 0.4.
## Result Fulfilled

***
## Task I'd appreciate it if you could check whether "SKVSGKGQQQQGQTV" has Binding of serum 2 to looped/cyclic peptides of protein N of SARS-CoV Urbani smaller than 0.4.
## Result Not fulfilled

## Task I'd appreciate it if you could check whether "MSRIGMEVTPSGTWL" has Binding of serum 2 to looped/cyclic peptides of protein N of SARS-CoV Urbani smaller than 0.4.
## Result Not fulfilled
